Read-out: E-selectin (Homo sapiens) (UniProt P16581)
Sequence (P16581 whole entry, looked up): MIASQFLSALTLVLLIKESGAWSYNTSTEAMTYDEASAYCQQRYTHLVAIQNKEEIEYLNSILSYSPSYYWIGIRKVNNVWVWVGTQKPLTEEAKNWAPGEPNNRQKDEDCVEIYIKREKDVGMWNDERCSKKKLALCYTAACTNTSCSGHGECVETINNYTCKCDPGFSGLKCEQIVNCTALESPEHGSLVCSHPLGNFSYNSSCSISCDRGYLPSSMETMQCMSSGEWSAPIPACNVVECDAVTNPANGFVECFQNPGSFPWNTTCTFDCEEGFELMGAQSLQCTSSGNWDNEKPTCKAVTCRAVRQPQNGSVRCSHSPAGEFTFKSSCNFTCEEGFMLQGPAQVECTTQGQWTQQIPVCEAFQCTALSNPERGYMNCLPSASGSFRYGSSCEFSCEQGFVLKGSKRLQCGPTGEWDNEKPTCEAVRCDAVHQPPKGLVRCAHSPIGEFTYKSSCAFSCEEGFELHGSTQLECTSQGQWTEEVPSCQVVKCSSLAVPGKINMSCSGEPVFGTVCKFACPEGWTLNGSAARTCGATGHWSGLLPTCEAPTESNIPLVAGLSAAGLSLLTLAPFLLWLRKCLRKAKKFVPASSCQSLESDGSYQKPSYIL
Test: BSK_LPS_Eselectin: BioMAP Diversity Plus: LPS Assay for Eselectin Biomarker Activity (AID 2283077)
Conditions: primary human HUVEC with PBMC; actives raise or lower the signal
Calls of active or inactive are those of the source. How the source made its calls: active means hit-call score of the fitted dose curve at least 0.9, where 1 is the maximum; inactive means score below 0.9.
Possible outcomes: active, inactive

MOLECULE: CCCCC/C=C/C=C/C=O
ANSWER_LABEL: active
--
MOLECULE: O=C1CCCCCCCCCCCCCCO1
ANSWER_LABEL: inactive
--
MOLECULE: COc1cc(C=O)ccc1OC(=O)C(C)C
ANSWER_LABEL: inactive
--
MOLECULE: C=C(C)C(=O)O[C@H]1C[C@@H]2CC[C@@]1(C)C2(C)C
ANSWER_LABEL: active
--
MOLECULE: CCCCCCCCCCCCCCCCCC(=O)OCC(CC)CCCC (stereo not given)
ANSWER_LABEL: inactive
